# credit: patent US11377469B2

Parameter pIC50: see the listing below.
target: CD73 (Homo sapiens (Human), UniProt P21589); experiment: Biochemical Assay (CD73 inhibition, AMP hydrolysis, Malachite Green readout); conditions: CD73 0.3208 nM, AMP 15 μM, Tris-HCl pH 7.4, Malachite Green absorbance
Sequence (P21589 27-574): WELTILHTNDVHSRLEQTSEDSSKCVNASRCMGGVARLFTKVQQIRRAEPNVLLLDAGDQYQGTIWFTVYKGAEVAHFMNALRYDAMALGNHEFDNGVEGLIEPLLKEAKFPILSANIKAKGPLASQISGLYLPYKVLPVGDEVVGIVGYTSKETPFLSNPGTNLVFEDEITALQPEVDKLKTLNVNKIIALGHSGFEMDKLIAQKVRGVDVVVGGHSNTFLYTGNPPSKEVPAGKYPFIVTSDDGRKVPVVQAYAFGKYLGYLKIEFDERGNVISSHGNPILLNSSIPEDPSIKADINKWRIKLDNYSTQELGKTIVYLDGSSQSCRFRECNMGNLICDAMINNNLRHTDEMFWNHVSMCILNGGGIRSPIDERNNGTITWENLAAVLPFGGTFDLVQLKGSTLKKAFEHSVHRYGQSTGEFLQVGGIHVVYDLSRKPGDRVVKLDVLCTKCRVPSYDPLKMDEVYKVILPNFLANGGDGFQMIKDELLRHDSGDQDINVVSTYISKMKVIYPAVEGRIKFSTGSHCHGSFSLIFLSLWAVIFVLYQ
pIC50: −log10 of the molar value.

structure string | pIC50
O=P(O)(O)CS(=O)(=O)C[C@H]1O[C@@H](n2ncc3c(N[C@H]4CCc5ccccc54)nc(Cl)nc32)[C@H](O)[C@@H]1O | ≥ 6.30
O=P(O)(O)CCC[C@H]1O[C@@H](n2ncc3c(NC4CCCC4)nc(Cl)nc32)[C@H](O)[C@@H]1O | 6.00 to 6.30
O=P(O)(O)COC[C@H]1O[C@@H](n2ncc3c(NC[C@@H]4CCCO4)nc(Cl)nc32)[C@H](O)[C@@H]1O | ≥ 6.30

###

molecular target: CD73 (Homo sapiens (Human), UniProt P21589)
pIC50: −log10 of the molar value.
Each item that follows carries a reported pIC50.

structure string | pIC50
O=P(O)(O)COC[C@H]1O[C@@H](n2ncc3c(Nc4ccccc4)nc(Cl)nc32)[C@H](O)[C@@H]1O | ≥ 6.30
O=P(O)(O)COC[C@H]1O[C@@H](n2ncc3c(N4CCC4)nc(Cl)nc32)[C@H](O)[C@@H]1O | ≥ 6.30
CN(Cc1ccccc1)c1nc(Cl)nc2c1cnn2[C@H]1O[C@H](COCCP(=O)(O)O)[C@@H](O)[C@H]1O | < 6.00
O=P(O)(O)COC[C@H]1O[C@@H](n2ncc3c(OCc4cccc(Cl)c4)nc(Cl)nc32)[C@H](O)[C@@H]1O | < 6.00
O=P(O)(O)CS(=O)(=O)C[C@H]1O[C@@H](n2ncc3c(NC4CCC4)nc(Cl)nc32)[C@H](O)[C@@H]1O | ≥ 6.30
O=P(O)(O)COC[C@H]1O[C@@H](n2nnc3c(N[C@H]4CCc5ccccc54)nc(Cl)nc32)[C@H](O)[C@@H]1O | ≥ 6.30
CN(CC1CC1)c1nc(Cl)nc2c1cnn2[C@@H]1O[C@H](COCP(=O)(O)O)[C@@H](O)[C@H]1O | ≥ 6.30

###

molecular target: CD73 (Homo sapiens (Human))
pIC50: −log10 of the molar value.
The reader will find reported pIC50 values listed item by item below.
property label: pIC50

compound | test target | observed value
CN(Cc1cccc(Cl)c1)c1nc(Cl)nc2c1cnn2[C@@H]1O[C@H](COCP(=O)(O)O)[C@@H](O)[C@H]1O [Example 37] | CD73 (Homo sapiens (Human)) | ≥ 6.30
O=P(O)(O)COC[C@H]1O[C@@H](n2ncc3c(NCc4cccc5ncccc45)nc(Cl)nc32)[C@H](O)[C@@H]1O [Example 51] | CD73 (Homo sapiens (Human)) | ≥ 6.30
CN(Cc1cccc(Cl)c1)c1nc(Cl)nc2c1nnn2[C@@H]1O[C@H](COCP(=O)(O)O)[C@@H](O)[C@H]1O [Example 39] | CD73 (Homo sapiens (Human)) | ≥ 6.30
O=P(O)(O)CS(=O)(=O)CC[C@H]1O[C@@H](n2ncc3c(NCC4CC4)nc(Cl)nc32)[C@H](O)[C@@H]1O [Example 88] | CD73 (Homo sapiens (Human)) | < 6.00
O=P(O)(O)CS(=O)(=O)C[C@H]1O[C@@H](n2nnc3c(NCc4ccc(Cl)cc4)nc(Cl)nc32)[C@H](O)[C@@H]1O [Example 120] | CD73 (Homo sapiens (Human)) | ≥ 6.30
O=P(O)(O)CS(=O)(=O)C[C@H]1O[C@@H](n2nnc3c(NCc4ccccc4Cl)nc(Cl)nc32)[C@H](O)[C@@H]1O [Example 118] | CD73 (Homo sapiens (Human)) | ≥ 6.30

###

Please consider the recorded pIC50 for CD73 (Homo sapiens (Human)) in what follows.
pIC50: −log10 of the molar value.

structure string | pIC50
O=P(O)(O)COC[C@H]1O[C@@H](n2ncc3c(NCc4cccc(F)c4)nc(Cl)nc32)[C@H](O)[C@@H]1O | ≥ 6.30
N#CC1(CNc2nc(Cl)nc3c2cnn3[C@@H]2O[C@H](COCP(=O)(O)O)[C@@H](O)[C@H]2O)CC1 | ≥ 6.30
O=P(O)(O)CS(=O)(=O)C[C@H]1O[C@@H](n2ncc3c(NC4Cc5ccccc5C4)nc(Cl)nc32)[C@H](O)[C@@H]1O | ≥ 6.30
O=C(CP(=O)(O)O)N(Cc1ccccc1)C[C@H]1O[C@@H](n2ncc3c(NCc4ccccc4Cl)nc(Cl)nc32)[C@H](O)[C@@H]1O | < 6.00
CC1(C)CCC[C@H]1Nc1nc(Cl)nc2c1cnn2[C@@H]1O[C@H](COCP(=O)(O)O)[C@@H](O)[C@H]1O | ≥ 6.30

###

pIC50: −log10 of the molar value.
CD73 (Homo sapiens (Human)) measurements of pIC50, listed per entry.
property label: pIC50

molecule | property label | observed value
C[C@@H]1CCC[C@@H]1Nc1nc(Cl)nc2c1cnn2[C@@H]1O[C@H](CS(=O)(=O)CP(=O)(O)O)[C@@H](O)[C@H]1O | pIC50 | ≥ 6.30
O=P(O)(O)CS(=O)(=O)C[C@H]1O[C@@H](n2nnc3c(NCc4ccc(F)cc4)nc(Cl)nc32)[C@H](O)[C@@H]1O | pIC50 | ≥ 6.30
CN(c1nc(Cl)nc2c1cnn2[C@@H]1O[C@H](CCP(=O)(O)O)[C@@H](O)[C@H]1O)[C@H]1CCc2ccccc21 | pIC50 | < 6.00
O=P(O)(O)COC[C@H]1O[C@@H](n2ncc3c(NC[C@H]4CCCO4)nc(Cl)nc32)[C@H](O)[C@@H]1O | pIC50 | ≥ 6.30
CC(=O)N(c1nc(Cl)nc2c1cnn2[C@@H]1O[C@H](COCP(=O)(O)O)[C@@H](O)[C@H]1O)C1CCCC1 | pIC50 | ≥ 6.30
O=C(CP(=O)(O)O)OC[C@H]1O[C@@H](n2ncc3c(NCc4ccccc4Cl)nc(Cl)nc32)[C@H](O)[C@@H]1O | pIC50 | ≥ 6.30
N#Cc1nc(NCc2cccc(Cl)c2)c2cnn([C@@H]3O[C@H](COCP(=O)(O)O)[C@@H](O)[C@H]3O)c2n1 | pIC50 | ≥ 6.30
C[C@H](Nc1nc(Cl)nc2c1cnn2[C@@H]1O[C@H](COCP(=O)(O)O)[C@@H](O)[C@H]1O)C1CC1 | pIC50 | ≥ 6.30
O=P(O)(O)CS(=O)(=O)C[C@H]1O[C@@H](n2nnc3c(NCc4cccc(Cl)c4)nc(Cl)nc32)[C@H](O)[C@@H]1O | pIC50 | ≥ 6.30
C[C@H](Nc1nc(Cl)nc2c1cnn2[C@@H]1O[C@H](COCP(=O)(O)O)[C@@H](O)[C@H]1O)c1ccccc1Cl | pIC50 | ≥ 6.30
CN(Cc1ccccc1)c1nc(Cl)nc2c1cnn2[C@@H]1O[C@H](COCP(=O)(O)O)[C@@H](O)[C@H]1O | pIC50 | ≥ 6.30
C[C@H](OCP(=O)(O)O)[C@H]1O[C@@H](n2ncc3c(NCc4ccccc4Cl)nc(Cl)nc32)[C@H](O)[C@@H]1O | pIC50 | < 6.00
Cc1cc2c(NCC3CC3)nc(Cl)nc2n1[C@@H]1O[C@H](COCP(=O)(O)O)[C@@H](O)[C@H]1O | pIC50 | < 6.00
C[C@@]1(O)[C@@H](COCP(=O)(O)O)O[C@@H](n2ncc3c(NCc4ccccc4Cl)nc(Cl)nc32)[C@@H]1O | pIC50 | 6.00 to 6.30
COP(=O)(CP(=O)(O)O)OC[C@H]1O[C@@H](n2nnc3c(NC4CCCC4)nc(Cl)nc32)[C@H](O)[C@@H]1O (stereo partly drawn) | pIC50 | ≥ 6.30
O=P(O)(O)COC[C@H]1O[C@@H](n2ncc3c(NCC4CCCC4)nc(Cl)nc32)[C@H](O)[C@@H]1O | pIC50 | ≥ 6.30
O=P(O)(O)COCC[C@H]1O[C@@H](n2ncc3c(NCC4CC4)nc(Cl)nc32)[C@H](O)[C@@H]1O | pIC50 | < 6.00
O=P(O)(O)COC[C@H]1O[C@@H](n2ncc3c(NC[C@@H]4CCOC4)nc(Cl)nc32)[C@H](O)[C@@H]1O | pIC50 | ≥ 6.30
O=P(O)(O)CS(=O)(=O)C[C@H]1O[C@@H](n2nnc3c(NC4CCCC4)nc(Cl)nc32)[C@H](O)[C@@H]1O | pIC50 | ≥ 6.30
CN(c1nc(Cl)nc2c1cnn2[C@@H]1O[C@H](COCP(=O)(O)O)[C@@H](O)[C@H]1O)[C@H]1CCc2ccccc21 | pIC50 | ≥ 6.30
O=P(O)(O)COC[C@H]1O[C@@H](n2nnc3c(NCc4ccccc4Cl)nc(Cl)nc32)[C@H](O)[C@@H]1O | pIC50 | ≥ 6.30
CN(c1nc(Cl)nc2c1nnn2[C@@H]1O[C@H](COCP(=O)(O)O)[C@@H](O)[C@H]1O)[C@H]1CCc2ccccc21 | pIC50 | 6.00 to 6.30
O=P(O)(O)COC[C@H]1O[C@@H](n2ccc3c(NCC4CC4)nc(Cl)nc32)[C@H](O)[C@@H]1O | pIC50 | ≥ 6.30
O=P(O)(O)COC[C@H]1O[C@@H](n2ncc3c(NCC4CCC4)nc(Cl)nc32)[C@H](O)[C@@H]1O | pIC50 | ≥ 6.30
O=P(O)(O)COC[C@H]1O[C@@H](n2ncc3c(NCC4CC(F)(F)C4)nc(Cl)nc32)[C@H](O)[C@@H]1O | pIC50 | ≥ 6.30
CN(Cc1ccccc1)c1nc(Cl)nc2c1cnn2[C@@H]1O[C@H](COCCP(=O)(O)O)[C@@H](O)[C@H]1O | pIC50 | < 6.00
O=P(O)(O)COC[C@H]1O[C@@H](n2nnc3c(NCC4CC4)nc(Cl)nc32)[C@H](O)[C@@H]1O | pIC50 | ≥ 6.30
